Data origin: patent US20220017622A1

- tested target: T1, human B7-H4 extracellular domain (human, UniProt Q7Z7D3 29-258)
- T1 construct: For SPR it says only human B7-H4 ECD; also called Hu B7-H4 ECD; huB7-H4 ECD
- T1 sequence: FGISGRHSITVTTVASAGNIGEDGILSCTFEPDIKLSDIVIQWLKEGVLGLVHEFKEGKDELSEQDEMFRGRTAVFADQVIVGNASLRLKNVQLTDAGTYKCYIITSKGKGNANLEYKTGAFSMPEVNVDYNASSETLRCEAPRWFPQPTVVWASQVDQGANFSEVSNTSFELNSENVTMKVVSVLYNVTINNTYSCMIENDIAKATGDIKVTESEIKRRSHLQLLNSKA
- test method notes: SPR Biacore 8K 25 C; mAb captured on anti-human Fc, huB7-H4 ECD analyte, 1:1 fit;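 further: antibodies tested as IgG1, running buffer HBS-EP+ at pH 7.4, rate constants and affinity from a 1:1 Langmuir model fit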
readout name: koff (s⁻¹)
Your answer is read as s⁻¹, so omit the unit and give the number.

# annotated cases, reported koff shown
Tell us which koff value is on record for B7-H4 antibody 0053 (antibody, human IgG1, kappa, V domains shown, also called 29G6) VH: QVQLQQWGAGLLKPSETLSLTCAVYGGPFSGYFWSWIRQPPGKGLEWIGEINHSGNTNYNPSLKSRVTISVDTSKNQFSLKLSSVTAADTAVYYCARAGGDYGFYYYYGMDVWGQGTTVTVSS VL: DIQLTQSPSTLSASVGDRVTITCRASQSISSWLAWYQQKPGKAPELLVYKASRLESGVPSRFSGSGSGTEFTLTISSLQPDDFATYYCQQYNSYFGGGTKVEIKR
0.000321

Tell me koff reported for B7-H4 antibody 0047 (antibody, human IgG1, kappa, V domains shown, also called 7H7) VH: QVQLQQWGAGLLKPSETLPLTCAVYGGSFSGYYWNWIRQPPGKGLEWIGEINHSGSATYNPSLKSRVTISVDTSKNHFSLKLSSVTAADTAVYFCARGLYNWNVDHWGQGTLVTVSS VL: DIQMTQSPSSLSASVGDRVTITCRASQGIRNDLGWYQQKPGKAPKRLIYAASSLQSGVPSRFSGSGSGTEFTLTISSLQPEDFATYYCLQHNSYPRTFGGGTKVEIKR
0.000635

***
Note koff for the binder shown: B7-H4 antibody 0049 (antibody, human IgG1, kappa, V domains shown, also called 13F4) VH: EVQLLESGGGLVQPGGSLRLSCAASGFTFSSYAMSWVRQAPGKGLEWVSAISGSGGSTYYADSVKGRFTISRDNSKNTLFLHMNSLRAEDTAVYYCARDIQWFGESVFDYWGQGTLVTVSS VL: DIQMTQSPSTLSASVGDRVTITCRASQSISSWLAWYQQKPGKAPKLLIYKASSLESGVPSRFSGNGSGTEFTLTISSLQPDDLATYYCQYYNSYSRTFGQGTKVEIKR
0.000414

Tell me its koff given B7-H4 antibody 0061 (antibody, human IgG1, kappa, V domains shown, also called 46E10) VH: QVQLQQWGAGLLKPSETLSLTCAVYGGSFSGYFWSWIRQPPGKGLEWIGEFNHSGGTNSNPSLKSRVTMSVDTSKNQFSLKLSSVTAADTAVYFCARAGGDYGFYYYYGLDVWGQGTTVTVSS VL: DIQLTQSPSTLSASVGDRVTITCRASQSISSWLAWYQQKPGKAPELLVYKASRLESGVPSRFSGSGSGTEFTLTISSLQPDDFATYYCQQYNSYFGGGTKVEIKR as the entry.
0.000572

Specify reported koff for the binder shown: B7-H4 antibody 0056 (antibody, human IgG1, kappa, V domains shown, also called 33G4) VH: EVQLLESGGGLVQPGGSLRLSCAASGFTFSTYAMNWVRQAPGKGLAWVSAISGSGGSTYYADSVKGRFTISRDDSKNTLYLQMNSLRAEDTAVYYCAKVDVVARYYGMDVWGQGTTVTVSS VL: DIQMTQSPSTLSASVGDRVTITCRASQSISGWLAWYQQKPGKAPKLLIYEASSLESGVPSRFSGSGSGTEFTLTISSLQPDDFATYYCQQYKSYSWTFGQGTKVEIKR
0.000353
